- test_system: Chromo domain-containing protein 1 (Saccharomyces cerevisiae (strain ATCC 204508 / S288c) (Baker's yeast)) (UniProt P32657)
- Sequence (P32657 whole entry, the tested form may be a part): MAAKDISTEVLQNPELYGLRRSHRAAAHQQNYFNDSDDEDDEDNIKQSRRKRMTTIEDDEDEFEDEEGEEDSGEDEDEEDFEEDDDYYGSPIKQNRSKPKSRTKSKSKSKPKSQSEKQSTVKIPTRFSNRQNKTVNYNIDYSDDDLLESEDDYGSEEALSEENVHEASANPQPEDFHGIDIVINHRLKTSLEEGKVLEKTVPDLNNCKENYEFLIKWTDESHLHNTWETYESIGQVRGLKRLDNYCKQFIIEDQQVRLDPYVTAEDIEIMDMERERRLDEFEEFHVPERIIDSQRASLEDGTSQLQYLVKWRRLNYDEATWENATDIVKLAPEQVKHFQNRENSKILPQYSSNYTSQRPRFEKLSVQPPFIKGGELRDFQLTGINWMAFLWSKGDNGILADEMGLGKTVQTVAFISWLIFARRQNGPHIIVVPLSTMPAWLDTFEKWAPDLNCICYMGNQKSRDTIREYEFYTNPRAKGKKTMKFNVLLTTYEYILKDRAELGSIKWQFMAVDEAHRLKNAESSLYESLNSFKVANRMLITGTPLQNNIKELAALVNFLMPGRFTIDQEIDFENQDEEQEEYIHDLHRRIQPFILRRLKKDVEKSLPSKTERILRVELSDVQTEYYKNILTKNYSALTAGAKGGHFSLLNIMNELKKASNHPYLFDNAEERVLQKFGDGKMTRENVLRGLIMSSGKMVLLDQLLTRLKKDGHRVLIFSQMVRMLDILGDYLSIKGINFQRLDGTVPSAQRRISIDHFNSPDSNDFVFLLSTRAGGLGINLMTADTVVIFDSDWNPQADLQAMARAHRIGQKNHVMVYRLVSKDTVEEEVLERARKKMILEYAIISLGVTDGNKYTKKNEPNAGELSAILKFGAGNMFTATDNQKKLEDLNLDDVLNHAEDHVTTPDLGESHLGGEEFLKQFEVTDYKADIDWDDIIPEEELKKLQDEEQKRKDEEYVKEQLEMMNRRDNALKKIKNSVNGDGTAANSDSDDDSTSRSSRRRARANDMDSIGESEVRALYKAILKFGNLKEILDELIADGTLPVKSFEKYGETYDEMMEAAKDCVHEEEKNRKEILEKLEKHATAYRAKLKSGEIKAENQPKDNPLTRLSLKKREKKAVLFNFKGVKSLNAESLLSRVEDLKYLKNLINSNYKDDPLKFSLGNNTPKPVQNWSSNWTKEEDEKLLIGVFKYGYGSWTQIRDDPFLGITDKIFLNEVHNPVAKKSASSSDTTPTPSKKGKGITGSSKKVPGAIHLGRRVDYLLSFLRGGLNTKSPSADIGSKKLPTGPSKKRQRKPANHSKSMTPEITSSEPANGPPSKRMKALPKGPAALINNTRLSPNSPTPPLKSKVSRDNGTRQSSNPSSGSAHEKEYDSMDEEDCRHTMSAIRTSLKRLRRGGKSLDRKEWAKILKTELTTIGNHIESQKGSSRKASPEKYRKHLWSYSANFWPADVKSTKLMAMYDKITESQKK
- assay_notes: ScCHD-1 Enzyme Inhibition Assay
- Type: functional
- Parameters: scale not given: in the data most compounds retested in dose-response had high values
- details: 30 µM
Listing: Percent Effect of selected compounds
observation_type: Percent Effect (%)

>  <compound>
CC(C)CCCNC(=O)Nc1ccc(F)c(C(N)=O)c1

>  <result_number>
-10.9

$$$$
>  <compound>
CCc1ccc(CN2CCC3(CC2)CNC(=O)CO3)o1

>  <result_number>
-0.389

$$$$
>  <compound>
CCCNCc1cn(C)nc1-c1cccnc1

>  <result_number>
1.57

$$$$
>  <compound>
Cc1cnc(C(=O)N2CCCCC2c2[nH]ncc2S(C)(=O)=O)cn1 (stereo unspecified)

>  <result_number>
-18.4

$$$$
>  <compound>
Cc1ncc2c(n1)CCN(Cc1nc3ccccc3o1)C2

>  <result_number>
-11

$$$$
>  <compound>
Cn1cc(Cl)cc1C(=O)N1CCCN(Cc2cccs2)CC1

>  <result_number>
7.24

$$$$
>  <compound>
CN(Cc1cc2c(cc1OC(F)F)OCO2)Cc1nccn1C

>  <result_number>
-1.72

$$$$
>  <compound>
COCC(=O)N1CCC(c2cc(C(F)(F)F)n3ccnc3n2)CC1

>  <result_number>
-24.5

$$$$
>  <compound>
Cc1nc(C)n(CC2CCCCN2CC(=O)NC2CCOCC2)n1 (stereo unspecified)

>  <result_number>
-7.41

$$$$
>  <compound>
CCn1cnnc1CNC(=O)N(C)Cc1ccc(F)c(F)c1

>  <result_number>
-7.63

$$$$
>  <compound>
CC(C)CN1CCC(NC(=O)c2ccc(F)cc2I)CC1

>  <result_number>
-10.3

$$$$
>  <compound>
O=C(CCc1cccnc1)N1CCCC(n2cncn2)C1 (stereo unspecified)

>  <result_number>
-1.28

$$$$
>  <compound>
CC(=O)NCC(=O)N1Cc2nccn2CC(Cn2cccn2)C1 (stereo unspecified)

>  <result_number>
-0.528

$$$$
>  <compound>
CCc1noc(CNc2cc(F)ccc2OCC2CCCO2)n1 (stereo unspecified)

>  <result_number>
-1.43

$$$$
>  <compound>
CCC(C)NC(=O)N1CCCn2cnc(CO)c2C1 (stereo unspecified)

>  <result_number>
1.09

$$$$
>  <compound>
O=C(COc1ccc2c(c1)CCC2)NS(=O)(=O)c1cncc(Br)c1

>  <result_number>
1.12

$$$$
>  <compound>
Cc1ncc2c(n1)CN(CCCc1nc3ccccc3o1)CC2

>  <result_number>
-7.47

$$$$
>  <compound>
CC(C)C(=O)N1CCCC(c2ncncc2-c2ccncc2)C1 (stereo unspecified)

>  <result_number>
-4.02

$$$$
>  <compound>
CCS(=O)(=O)N1C[C@H]2CCC[C@@]2(COc2ccccn2)C1

>  <result_number>
-1.39

$$$$
>  <compound>
O=C(O)c1nnn(Cc2cccc(C(F)(F)F)c2)c1-c1cccnc1

>  <result_number>
-7.79

$$$$
>  <compound>
O=C(NCCn1ccnc1)N1CCCC1c1ccsc1 (stereo unspecified)

>  <result_number>
-4.56

$$$$
>  <compound>
CNc1cc(CCNC(=O)c2cccnc2)nc(-c2ccncc2)n1

>  <result_number>
-5.16

$$$$
>  <compound>
COCC(=O)N1CCC(c2nccnc2Oc2cccnc2C)CC1

>  <result_number>
-22.1

$$$$
>  <compound>
Cn1nc2c(cc1=O)CN(Cc1nnc(C3CC3)o1)CC2

>  <result_number>
-6.1

$$$$
>  <compound>
Cc1ccccc1-c1cc(C(=O)NCCN2CCCS2(=O)=O)[nH]n1

>  <result_number>
-1.78

$$$$
>  <compound>
O=C(O)CCc1cc2n(n1)CCCN(C(=O)c1ccc3cc[nH]c3c1)C2

>  <result_number>
-3.38

$$$$
>  <compound>
Cc1ccc(N2CCC3(CCN(C(N)=O)CC3)CC2)nn1

>  <result_number>
-0.155

$$$$
>  <compound>
CN1CCOC(CNCc2coc(-c3cccs3)n2)C1 (stereo unspecified)

>  <result_number>
-14.2

$$$$
>  <compound>
Cc1cnn(CCNCC(=O)NCC2(c3ccccc3)CCC2)c1

>  <result_number>
-19.9

$$$$
>  <compound>
O=C(NCN1CCc2ccccc2C1)c1cnccn1

>  <result_number>
-6.84

$$$$
>  <compound>
CC(C)(C)C(=O)NCCc1ccn(-c2ccccc2)n1

>  <result_number>
-30

$$$$
>  <compound>
Cc1ccccc1C(=O)N1CCC(n2nnc3cc(F)ccc32)CC1

>  <result_number>
-5

$$$$
>  <compound>
Cn1ccc(C(=O)N2CCN(c3cc(C#N)ccn3)CC2)cc1=O

>  <result_number>
-17.3

$$$$
>  <compound>
Cc1ccc(C2(CN3CCCC3)CCNCC2)nc1

>  <result_number>
-0.82

$$$$
>  <compound>
Cc1nn(C)cc1CCC(=O)N1CCCC(n2cncn2)C1 (stereo unspecified)

>  <result_number>
-4.09

$$$$
>  <compound>
CC1COCCN1C(=O)c1cccc(OCc2cscn2)c1 (stereo unspecified)

>  <result_number>
-2.42

$$$$

Values from ChEMBL document CHEMBL3988442
